- target_under_test: FSHR (Homo sapiens, UniProt P23945)
- Construct: expressed in transfected cells; host or cells: CHO (Cho-FSHR-LUC-1-1-43)
- Sequence (P23945 18-695): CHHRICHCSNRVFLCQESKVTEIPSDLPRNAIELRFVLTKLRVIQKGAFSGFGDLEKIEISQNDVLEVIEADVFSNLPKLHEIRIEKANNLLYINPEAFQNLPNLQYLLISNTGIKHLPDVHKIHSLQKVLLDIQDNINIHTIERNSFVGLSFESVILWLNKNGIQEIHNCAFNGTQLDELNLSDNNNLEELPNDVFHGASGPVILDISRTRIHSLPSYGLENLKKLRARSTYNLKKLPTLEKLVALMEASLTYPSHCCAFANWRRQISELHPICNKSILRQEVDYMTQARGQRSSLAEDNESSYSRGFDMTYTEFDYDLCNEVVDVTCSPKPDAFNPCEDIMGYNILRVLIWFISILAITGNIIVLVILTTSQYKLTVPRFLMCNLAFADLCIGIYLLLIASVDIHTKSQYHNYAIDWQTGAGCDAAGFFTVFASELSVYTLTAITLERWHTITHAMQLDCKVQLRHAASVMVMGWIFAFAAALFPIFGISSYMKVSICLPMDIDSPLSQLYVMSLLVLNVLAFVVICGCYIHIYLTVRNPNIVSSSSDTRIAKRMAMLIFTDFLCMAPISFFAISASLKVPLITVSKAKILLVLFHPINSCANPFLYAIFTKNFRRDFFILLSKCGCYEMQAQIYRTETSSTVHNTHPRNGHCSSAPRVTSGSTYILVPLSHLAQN
- Sequence (P01215 25-116 partner): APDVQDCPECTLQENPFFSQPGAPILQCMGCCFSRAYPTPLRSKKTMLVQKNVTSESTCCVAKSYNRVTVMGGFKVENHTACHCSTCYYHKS
- Sequence (P01225 19-129 partner): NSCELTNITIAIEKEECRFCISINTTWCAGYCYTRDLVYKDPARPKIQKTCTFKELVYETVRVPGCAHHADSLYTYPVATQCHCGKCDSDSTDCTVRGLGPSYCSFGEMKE
- assay_method_text: EC50 of cyclic AMP production in CHO FSHR cells + EC20 FSH (Assay A)
- Type: cell-based
- condition_label: CHO FSHR cells + EC20 FSH; Table 1; read-out: Assay A EC50 of cyclic AMP production
pEC50: −log10 of the molar value.
measurement_type: pEC50

Consider the following illustrative entries.
Entry Cc1ccc(C(=O)Nc2cc(C(=O)NCCCCO)ccc2N2CCN(c3ccccc3C)CC2)o1 needs its pEC50 filled in; supply it.
6.00 to 7.00

Entry Cc1ccccc1N1CCN(c2ccc(C(=O)NCCCn3cccn3)cc2NC(=O)c2ccco2)CC1 needs its pEC50 filled in; supply it.
6.00 to 7.00

Entry Cc1ccccc1N1CCN(c2ccc(C(=O)NCCCN3C(=O)CCC3=O)cc2NC(=O)c2ccco2)CC1 needs its pEC50 filled in; supply it.
6.00 to 7.00

Entry Cc1ccccc1N1CCN(c2ccc(C(=O)NCc3cccc(-c4nnn[nH]4)c3)cc2NC(=O)c2ccco2)CC1 needs its pEC50 filled in; supply it.
> 7.00

Further cases:
Entry Cc1ccccc1N1CCN(c2ccc(C(=O)NCCCN3CCCC3=O)cc2NC(=O)c2ccsc2)CC1 needs its pEC50 filled in; supply it.
6.00 to 7.00

Entry Cc1ccc(C(=O)Nc2cc(C(=O)NCc3cccnc3)ccc2N2CCN(c3ccccc3C)CC2)o1 needs its pEC50 filled in; supply it.
6.00 to 7.00

Entry Cc1ccc(C(=O)Nc2cc(C(=O)N[C@@H]3CCN(C(=O)OC(C)(C)C)C3)ccc2N2CCN(c3ccccc3C)CC2)o1 needs its pEC50 filled in; supply it.
5.00 to 6.00

Entry Cc1ccccc1N1CCN(c2ccc(C(=O)NCCC(=O)N3CCCC3)cc2NC(=O)c2ccco2)CC1 needs its pEC50 filled in; supply it.
6.00 to 7.00

Entry Cc1ccccc1N1CCN(c2ccc(C(=O)NCCC3C[C@H]4CC[C@@H]3C4)cc2NC(=O)c2coc(C3CC3)n2)CC1 (stereo partly drawn) needs its pEC50 filled in; supply it.
6.00 to 7.00

Entry Cc1ccccc1C(=O)Nc1cc(C(=O)NCCCN2CCCC2=O)ccc1N1CCN(c2ccccc2C)CC1 needs its pEC50 filled in; supply it.
5.00 to 6.00

Entry Cc1ccc(C(=O)Nc2cc(C(=O)NCCCN3CCCC3=O)ccc2N2CCN(c3ccccc3[N+](=O)[O-])CC2)o1 needs its pEC50 filled in; supply it.
5.00 to 6.00

Entry Cc1ccc(C(=O)Nc2cc(C(=O)NCCCN3CCCC3=O)ccc2N2CCN(c3ccccc3C(F)(F)F)CC2)o1 needs its pEC50 filled in; supply it.
5.00 to 6.00

Entry Cc1ccccc1N1CCN(c2ccc(C(=O)NCCCN3CCCC3=O)cc2NC(=O)c2nc3ccccc3s2)CC1 needs its pEC50 filled in; supply it.
5.00 to 6.00

Entry Cc1ccc(C(=O)Nc2cc(C(=O)NCCCN3CCCC3=O)ccc2N2CCN(c3ccccc3F)CC2)o1 needs its pEC50 filled in; supply it.
5.00 to 6.00

Entry Cc1ccccc1N1CCN(c2ccc(C(=O)NCc3ccc(Cl)cc3)cc2NC(=O)c2ccco2)CC1 needs its pEC50 filled in; supply it.
6.00 to 7.00
